These entries and their values trace back to patent US12161650B2.

test: Phase 1b study in RYR1-Related Myopathy patients, plasma pharmacokinetics; format: in vivo, human (RYR1-Related Myopathy patients); conditions: human, plasma, po, 200 mg, single oral 200 mg, three subjects, time 0 hr
READOUT: concentration at 0 h (ng/mL)
One number for each entry, in ng/mL.

Quick one: concentration at 0 h of COc1ccc2c(c1)CN(Cc1ccc(C(=O)O)cc1)CCS2.O=C(O)/C=C/C(=O)O ? 0

====

assay: Phase 1 clinical trial, Part I single ascending doses, plasma pharmacokinetics; assay type: in vivo, human (healthy male volunteers); settings: male, human, plasma; single oral dose 400 mg, geom. mean; read-out: t1/2, z (converted)
READOUT: half-life (min)
Answers are plain numbers, in min.

Would you mind telling me what half-life value was observed for COc1ccc2c(c1)CN(Cc1ccc(C(=O)O)cc1)CCS2.O=C(O)/C=C/C(=O)O ? 1120

====

assay: Phase 1 clinical trial, Part I single ascending doses, plasma pharmacokinetics; type: in vivo, human (healthy male volunteers); details: male, human, plasma; single oral dose 40 mg, Day 1, median; read-out: tmax
READOUT: Tmax (h)
Answers are plain numbers, in h.

Quick one: Tmax of COc1ccc2c(c1)CN(Cc1ccc(C(=O)O)cc1)CCS2.O=C(O)/C=C/C(=O)O [Compound I] ? 3

====

test: Phase 1b study in RYR1-Related Myopathy patients, plasma pharmacokinetics; type: in vivo, human (RYR1-Related Myopathy patients); settings: human, plasma, po, 200 mg, 200 mg oral daily for 28 days, three subjects, time 8 hr
READOUT: concentration at 8 h (ng/mL)
Give bare numbers, in ng/mL.

What value of measured concentration at 8 h is listed for COc1ccc2c(c1)CN(Cc1ccc(C(=O)O)cc1)CCS2.O=C(O)/C=C/C(=O)O ? 18300

====

assay: Phase 1 clinical trial, Part I single ascending doses, plasma pharmacokinetics; assay type: in vivo, human (healthy male volunteers); details: male, human, plasma; single oral dose 40 mg, Day 1, geom. mean
READOUT: Cmax (ng/mL)
Answers are plain numbers, in ng/mL.

Which value of Cmax has been reported for COc1ccc2c(c1)CN(Cc1ccc(C(=O)O)cc1)CCS2.O=C(O)/C=C/C(=O)O [Compound I] in the records? 3940

====

test: Phase 1 clinical trial, Part II multiple ascending doses over 14 days, plasma pharmacokinetics; assay type: in vivo, human (healthy male volunteers); settings: male, human, plasma, oral; 120 mg once daily (Treatment K, n = 8), Day 1, geom. mean; read-out: AUC0-24
READOUT: AUC(0-t) (µg·h/mL)
Numbers only, in µg·h/mL.

Quick check: AUC(0-t) of COc1ccc2c(c1)CN(Cc1ccc(C(=O)O)cc1)CCS2.O=C(O)/C=C/C(=O)O [Compound I] ? 138

====

assay: Phase 1b study in RYR1-Related Myopathy patients, plasma pharmacokinetics; format: in vivo, human (RYR1-Related Myopathy patients); settings: human, plasma, po, 200 mg, 200 mg oral daily for 28 days, three subjects, time 0.5 hr
READOUT: concentration at 0.5 h (ng/mL)
One number for each entry, in ng/mL.

// query concentration at 0.5 h value for entry COc1ccc2c(c1)CN(Cc1ccc(C(=O)O)cc1)CCS2.O=C(O)/C=C/C(=O)O 8190

====

assay: Phase 1 clinical trial, Part II multiple ascending doses over 14 days, plasma pharmacokinetics; assay type: in vivo, human (healthy male volunteers); conditions: male, human, plasma, oral; 240 mg once daily (Treatment L, n = 7), Day 1, geom. mean; read-out: AUC0-24
READOUT: AUC(0-t) (µg·h/mL)
Answers are plain numbers, in µg·h/mL.

Need AUC(0-t), item COc1ccc2c(c1)CN(Cc1ccc(C(=O)O)cc1)CCS2.O=C(O)/C=C/C(=O)O 270
